Ref: the supplement of paper PMC10567573

Listing of entries alongside the reported protein stability index.
B1: CLCN6 (parent)
chain: FQSISLRKIQFNFPYFRSDRDKRD

Variants of: B1
Test Summary: protein stability index of a GFP-peptide fusion (GPS, HEK-293T) (PSI 1-6); higher = more stable;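 note: lentivirally expressed fusions sorted by FACS into six bins by GFP to DsRed ratio, PSI derived from sequencing read proportions per bin multiplied by bin number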
Condition: c terminus: a fixed tail appended

Example cases with answers are listed next.
Incoming: State its protein stability index: F11C
Outgoing: 1.96

Incoming: State its protein stability index: S3E
Outgoing: 2.73

New cases:
Incoming: State its protein stability index: Q2C
Outgoing: 1.9

Incoming: State its protein stability index: D24R
Outgoing: 1.94

Incoming: State its protein stability index: F13V
Outgoing: 1.43

Incoming: State its protein stability index: F1D
Outgoing: 3.34

Incoming: State its protein stability index: S5N
Outgoing: 1.82

Incoming: State its protein stability index: I4G
Outgoing: 2.02

Incoming: State its protein stability index: D21H
Outgoing: 2.02

Incoming: State its protein stability index: D21V
Outgoing: 2.94
